SYSTEM_TESTED: T1, Human siglec-6 expressed on the cell surface (HMC1.2 cells; HEK293 cells expressing human siglec-6) (human, UniProt O43699 27-453)
T1 construct: whole, on cells; also called cell surface expressed siglec-6; CD327
EXPERIMENT_DESCRIPTION: flow cytometry on HMC1.2 cells
MEASURED_QUANTITY: MFI (MFI)
Kindly provide the numeric value in MFI only, without the unit symbol.

Query: Need MFI of hRND-5 (antibody, human IgG1, kappa, V domains shown, also called humanized RND-5; hRND-H3b / hRND-L3; copies: 2 + 2) VH: QVQLVQSGAEVKKPGASVKLSCKASGYAFTSYWMHWVRQAPGQRLEWIGEIYPTNGGTTYNEKFKRRATLTVDKSTSTAYMELSRLRSDDTAVYYCTIEDFYAMDYWGQGTTVTVSS VL: DIVMTQTPLSLSVTPGQPASISCKSSQSLLDSDGKTSLNWLLQKPGQSPQRLIYLVSKLDSGVPDRFSGSGSGTDFTLKISRVEAEDVGVYYCWQGTHFPYTFGQGTKLEIKR , thanks.
Reply: 1940
